# Lookup of reported MIC keyed by entry
System: strain 21
Test: MIC determination, broth microdilution (CLSI)
Format: cell-based
VALUE_TYPE: MIC (µg/mL)

> print(dat)
                                 cpd.smiles  value.type  unit.tag  reported.measurement
1  Cc1cc(OCCO/N=C(\C(=O)N[C@@H]2C(=O)N(S(=O)(=O)O)[C@H]2C)c2csc(N)n2)ccc1C(=N)N         MIC     µg/mL                   0.5
2  CC1(C)[C@H](NC(=O)/C(=N\OCCOc2cc(C(=N)N)ccn2)c2csc(N)n2)C(=O)N1OS(=O)(=O)O         MIC     µg/mL                     1
3  CC1(C)[C@H](NC(=O)/C(=N\OCCOc2ccc(C3=NCCN3)cc2)c2csc(N)n2)C(=O)N1OS(=O)(=O)O         MIC     µg/mL                 0.125
4  CC1(C)[C@H](NC(=O)/C(=N\OCCOc2ccc(C(=N)N)nc2)c2csc(N)n2)C(=O)N1OS(=O)(=O)O         MIC     µg/mL                  0.25
5  Cc1cc(OCCO/N=C(\C(=O)N[C@@H]2C(=O)N(OS(=O)(=O)O)C2(C)C)c2csc(N)n2)ccc1C(=N)N         MIC     µg/mL                   0.5
6  CC1(C)[C@H](NC(=O)/C(=N\OCCOc2ccc(C(=N)NCCNC=N)cc2)c2csc(N)n2)C(=O)N1OS(=O)(=O)O         MIC     µg/mL                  0.25
7  CC1(C)[C@H](NC(=O)/C(=N\OCCOc2ccc(C(=N)NC3CCNCC3)cc2)c2csc(N)n2)C(=O)N1OS(=O)(=O)O         MIC     µg/mL                  0.25

Values compiled from patent US9556165B2.
